details: in methanol, 328.15 K
readout-name: solubility (mole fraction)
Kindly provide the number alone.

response.value for CCOC(=O)c1c(CSc2ccccc2)n(C)c2cc(Br)c(O)c(CN(C)C)c12.Cl.O (field: solubility (mole fraction)) = 0.0903

---

conditions: in water, 308.15 K
readout-name: solubility (mole fraction)
Kindly provide the number alone.

response.value for CCOC(=O)c1c(CSc2ccccc2)n(C)c2cc(Br)c(O)c(CN(C)C)c12.Cl.O (field: solubility (mole fraction)) = 0.000108

---

settings: in methanol, 318.15 K
readout-name: solubility (mole fraction)

response.value for CCOC(=O)c1c(CSc2ccccc2)n(C)c2cc(Br)c(O)c(CN(C)C)c12.Cl.O (field: solubility (mole fraction)) = 0.0715

---

conditions: in DMF, 293.15 K
readout-name: solubility (mole fraction)

response.value for CCOC(=O)c1c(CSc2ccccc2)n(C)c2cc(Br)c(O)c(CN(C)C)c12.Cl.O (field: solubility (mole fraction)) = 0.0228

---

settings: in NMP, 333.15 K
readout-name: solubility (mole fraction)
Kindly provide the number alone.

response.value for CCOC(=O)c1c(CSc2ccccc2)n(C)c2cc(Br)c(O)c(CN(C)C)c12.Cl.O (field: solubility (mole fraction)) = 0.0722

---

conditions: in THF, 303.15 K
readout-name: solubility (mole fraction)

response.value for CCOC(=O)c1c(CSc2ccccc2)n(C)c2cc(Br)c(O)c(CN(C)C)c12.Cl.O (field: solubility (mole fraction)) = 0.000678

---

details: in NMP, 323.15 K
readout-name: solubility (mole fraction)
Kindly provide the number alone.

response.value for CCOC(=O)c1c(CSc2ccccc2)n(C)c2cc(Br)c(O)c(CN(C)C)c12.Cl.O (field: solubility (mole fraction)) = 0.0554

---

details: in n-butanol, 318.15 K
readout-name: solubility (mole fraction)
Kindly provide the number alone.

response.value for CCOC(=O)c1c(CSc2ccccc2)n(C)c2cc(Br)c(O)c(CN(C)C)c12.Cl.O (field: solubility (mole fraction)) = 0.0105

---

conditions: in ethyl acetate, 333.15 K
readout-name: solubility (mole fraction)
Kindly provide the number alone.

response.value for CCOC(=O)c1c(CSc2ccccc2)n(C)c2cc(Br)c(O)c(CN(C)C)c12.Cl.O (field: solubility (mole fraction)) = 0.000426

---

settings: in n-butanol, 293.15 K
readout-name: solubility (mole fraction)
Kindly provide the number alone.

response.value for CCOC(=O)c1c(CSc2ccccc2)n(C)c2cc(Br)c(O)c(CN(C)C)c12.Cl.O (field: solubility (mole fraction)) = 0.00344

---

conditions: in ethyl acetate, 298.15 K
readout-name: solubility (mole fraction)

response.value for CCOC(=O)c1c(CSc2ccccc2)n(C)c2cc(Br)c(O)c(CN(C)C)c12.Cl.O (field: solubility (mole fraction)) = 0.000101

---

conditions: in methanol, 293.15 K
readout-name: solubility (mole fraction)
Kindly provide the number alone.

response.value for CCOC(=O)c1c(CSc2ccccc2)n(C)c2cc(Br)c(O)c(CN(C)C)c12.Cl.O (field: solubility (mole fraction)) = 0.0405

---

details: in acetone, 313.15 K
readout-name: solubility (mole fraction)
Kindly provide the number alone.

response.value for CCOC(=O)c1c(CSc2ccccc2)n(C)c2cc(Br)c(O)c(CN(C)C)c12.Cl.O (field: solubility (mole fraction)) = 0.000696
